Test: Plasma kinetics of Compound A after i.v. injection in mice (HPLC)
Type: in vivo, C3H/HeN female mice
Details: mouse, plasma, iv; 9.5 mg/kg i.v.; 2 minutes; read-out: observed maximum plasma concentration

{"columns": ["mol smiles", "Cmax at 2 min [ng/mL]"],
 "data": [
  ["CC(=O)O[C@H]1C(=O)[C@]23C[C@H]2C[C@H]2OC[C@@]2(OC(C)=O)[C@H]3[C@H](OC(=O)c2ccccc2)[C@]2(O)C[C@H](OC(=O)[C@H](O)[C@@H](NC(=O)OC(C)(C)C)c3ccccc3)C(C)=C1C2(C)C", 14000]
]}

###

Assay: Brain distribution of Compound A in mice with mammary C/16 adenocarcinomas (second method, brain tissue)
Type: in vivo, C3H/HeN female mice
Details: mouse, brain, iv, 40 mg/kg, 24 h; 40 μg/kg [sic]; single mice; read-out: Brain CONC.

{"columns": ["mol smiles", "concentration at 24 h [ng/g]"],
 "data": [
  ["CC(=O)O[C@H]1C(=O)[C@]23C[C@H]2C[C@H]2OC[C@@]2(OC(C)=O)[C@H]3[C@H](OC(=O)c2ccccc2)[C@]2(O)C[C@H](OC(=O)[C@H](O)[C@@H](NC(=O)OC(C)(C)C)c3ccccc3)C(C)=C1C2(C)C", 8580]
]}

###

Test: Tissue distribution of Compound A in mice with mammary C/16 adenocarcinomas (first method: liver, heart, kidney, lung, spleen, tumor)
Format: in vivo, C3H/HeN female mice
Settings: mouse, liver/plasma, iv, 40 mg/kg, 14 h; mice with tumors; single mouse; read-out: Tissue/Plasma Ratio, LIVER

{"columns": ["mol smiles", "Kp at 14 h"],
 "data": [
  ["CC(=O)O[C@H]1C(=O)[C@]23C[C@H]2C[C@H]2OC[C@@]2(OC(C)=O)[C@H]3[C@H](OC(=O)c2ccccc2)[C@]2(O)C[C@H](OC(=O)[C@H](O)[C@@H](NC(=O)OC(C)(C)C)c3ccccc3)C(C)=C1C2(C)C", 1.62]
]}

###

Test: Tissue distribution of Compound A in mice with mammary C/16 adenocarcinomas (first method: liver, heart, kidney, lung, spleen, tumor)
Format: in vivo, C3H/HeN female mice
Details: mouse, kidney/plasma, iv, 40 mg/kg, 0.033 h; 40 μg/kg [sic]; mice with tumors; single mice; read-out: Tissue/Plasma Ratio, KIDNEY

{"columns": ["mol smiles", "Kp at 0.033 h"],
 "data": [
  ["CC(=O)O[C@H]1C(=O)[C@]23C[C@H]2C[C@H]2OC[C@@]2(OC(C)=O)[C@H]3[C@H](OC(=O)c2ccccc2)[C@]2(O)C[C@H](OC(=O)[C@H](O)[C@@H](NC(=O)OC(C)(C)C)c3ccccc3)C(C)=C1C2(C)C", 1.7]
]}

###

Test: Tissue distribution of Compound A in mice with mammary C/16 adenocarcinomas (first method: liver, heart, kidney, lung, spleen, tumor)
Format: in vivo, C3H/HeN female mice
Conditions: mouse, heart/plasma, iv, 40 mg/kg, 0.033 h; mice with tumors; single mice; read-out: Tissue/Plasma Ratio, HEART

{"columns": ["mol smiles", "Kp at 0.033 h"],
 "data": [
  ["CC(=O)O[C@H]1C(=O)[C@]23C[C@H]2C[C@H]2OC[C@@]2(OC(C)=O)[C@H]3[C@H](OC(=O)c2ccccc2)[C@]2(O)C[C@H](OC(=O)[C@H](O)[C@@H](NC(=O)OC(C)(C)C)c3ccccc3)C(C)=C1C2(C)C", 0.45]
]}

###

Experiment: Tissue distribution of Compound A in mice with mammary C/16 adenocarcinomas (first method: liver, heart, kidney, lung, spleen, tumor)
Format: in vivo, C3H/HeN female mice
Settings: mouse, tumor/plasma, iv, dose 24.8; 1 h; single mice; read-out: Tumor/Plasma Ratio

{"columns": ["mol smiles", "Kp at 1 h"],
 "data": [
  ["CC(=O)O[C@H]1C(=O)[C@]23C[C@H]2C[C@H]2OC[C@@]2(OC(C)=O)[C@H]3[C@H](OC(=O)c2ccccc2)[C@]2(O)C[C@H](OC(=O)[C@H](O)[C@@H](NC(=O)OC(C)(C)C)c3ccccc3)C(C)=C1C2(C)C", 1.29]
]}

###

Assay: Tissue distribution of Compound A in mice with mammary C/16 adenocarcinomas (first method: liver, heart, kidney, lung, spleen, tumor)
Type: in vivo, C3H/HeN female mice
Details: mouse, liver, iv; 40 mg/kg i.v.; read-out: time of maximum concentration, liver

{"columns": ["compound", "Tmax (min)"],
 "data": [
  ["CC(=O)O[C@H]1C(=O)[C@]23C[C@H]2C[C@H]2OC[C@@]2(OC(C)=O)[C@H]3[C@H](OC(=O)c2ccccc2)[C@]2(O)C[C@H](OC(=O)[C@H](O)[C@@H](NC(=O)OC(C)(C)C)c3ccccc3)C(C)=C1C2(C)C [Compound A]", 4.98]
]}

###

Experiment: Tissue distribution of Compound A in mice with mammary C/16 adenocarcinomas (first method: liver, heart, kidney, lung, spleen, tumor)
Type: in vivo, C3H/HeN female mice
Details: mouse, spleen/plasma, iv, 40 mg/kg, 0.033 h; mice with tumors; single mice; read-out: Tissue/Plasma Ratio, SPLEEN

{"columns": ["compound", "Kp at 0.033 h"],
 "data": [
  ["CC(=O)O[C@H]1C(=O)[C@]23C[C@H]2C[C@H]2OC[C@@]2(OC(C)=O)[C@H]3[C@H](OC(=O)c2ccccc2)[C@]2(O)C[C@H](OC(=O)[C@H](O)[C@@H](NC(=O)OC(C)(C)C)c3ccccc3)C(C)=C1C2(C)C [Compound A]", 0.46]
]}

###

Experiment: Brain distribution of Compound A in mice with mammary C/16 adenocarcinomas (second method, brain tissue)
Type: in vivo, C3H/HeN female mice
Details: mouse, brain, iv, 40 mg/kg, 48 h; 40 μg/kg [sic]; single mice; read-out: Brain CONC.

{"columns": ["mol smiles", "concentration at 48 h, ng/g"],
 "data": [
  ["CC(=O)O[C@H]1C(=O)[C@]23C[C@H]2C[C@H]2OC[C@@]2(OC(C)=O)[C@H]3[C@H](OC(=O)c2ccccc2)[C@]2(O)C[C@H](OC(=O)[C@H](O)[C@@H](NC(=O)OC(C)(C)C)c3ccccc3)C(C)=C1C2(C)C", 3670]
]}

###

Assay: Tissue distribution of Compound A in mice with mammary C/16 adenocarcinomas (first method: liver, heart, kidney, lung, spleen, tumor)
Assay type: in vivo, C3H/HeN female mice
Settings: mouse, tumor/plasma, iv, dose 15.4; 1 h; single mice, MEAN=b373; read-out: Tumor/Plasma Ratio
quantity measured: Kp at 1 h

{"columns": ["mol smiles", "readout number"],
 "data": [
  ["CC(=O)O[C@H]1C(=O)[C@]23C[C@H]2C[C@H]2OC[C@@]2(OC(C)=O)[C@H]3[C@H](OC(=O)c2ccccc2)[C@]2(O)C[C@H](OC(=O)[C@H](O)[C@@H](NC(=O)OC(C)(C)C)c3ccccc3)C(C)=C1C2(C)C", 1.83]
]}

###

Assay: Tissue distribution of Compound A in mice with mammary C/16 adenocarcinomas (first method: liver, heart, kidney, lung, spleen, tumor)
Assay type: in vivo, C3H/HeN female mice
Details: mouse, kidney, iv; 40 mg/kg i.v.; read-out: time of maximum concentration, kidney

{"columns": ["mol smiles", "Tmax / min"],
 "data": [
  ["CC(=O)O[C@H]1C(=O)[C@]23C[C@H]2C[C@H]2OC[C@@]2(OC(C)=O)[C@H]3[C@H](OC(=O)c2ccccc2)[C@]2(O)C[C@H](OC(=O)[C@H](O)[C@@H](NC(=O)OC(C)(C)C)c3ccccc3)C(C)=C1C2(C)C", 1.98]
]}

###

Test: Tissue distribution of Compound A in mice with mammary C/16 adenocarcinomas (first method: liver, heart, kidney, lung, spleen, tumor)
Assay type: in vivo, C3H/HeN female mice
Conditions: mouse, tumor/plasma, iv, 40 mg/kg, 4 h; mice with tumors; single mice; read-out: Tissue/Plasma Ratio, TUMOR

{"columns": ["molecule", "Kp at 4 h"],
 "data": [
  ["CC(=O)O[C@H]1C(=O)[C@]23C[C@H]2C[C@H]2OC[C@@]2(OC(C)=O)[C@H]3[C@H](OC(=O)c2ccccc2)[C@]2(O)C[C@H](OC(=O)[C@H](O)[C@@H](NC(=O)OC(C)(C)C)c3ccccc3)C(C)=C1C2(C)C [Compound A]", 1.8]
]}

###

Experiment: Tissue distribution of Compound A in mice with mammary C/16 adenocarcinomas (first method: liver, heart, kidney, lung, spleen, tumor)
Assay type: in vivo, C3H/HeN female mice
Conditions: mouse, heart/plasma, iv, 40 mg/kg, 0.25 h; mice with tumors; single mice; read-out: Tissue/Plasma Ratio, HEART

{"columns": ["mol smiles", "Kp at 0.25 h"],
 "data": [
  ["CC(=O)O[C@H]1C(=O)[C@]23C[C@H]2C[C@H]2OC[C@@]2(OC(C)=O)[C@H]3[C@H](OC(=O)c2ccccc2)[C@]2(O)C[C@H](OC(=O)[C@H](O)[C@@H](NC(=O)OC(C)(C)C)c3ccccc3)C(C)=C1C2(C)C", 0.65]
]}

Values were extracted from patent US6156789A.
